Test system: Wnt5a (protein binding on small-molecule microarray)
measurement_notes: Wnt5a binders on small-molecule microarray, primary screen, biophysical, 635/667 nm fluorescence (AID 1142);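 further: fluorescence read at 667 nm with signal to noise per printed feature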
study_conditions: 635 nm fluorescence, higher = more signal
Listing of entries alongside the reported composite z-score.
Reply with just the number.

Observe how each entry below is paired with its result.
1. COCCOC(=O)N1C(=O)[C@@]2(c3cc(C#CCC(C(=O)OC)C(=O)OC)ccc31)[C@H](c1ccc(OCCO)cc1)N1[C@H](c3ccccc3)[C@H](c3ccccc3)OC(=O)[C@H]1[C@@H]2C(=O)Nc1nc2ccccc2s1: 0.0015
2. COCCOC(=O)N1C(=O)[C@@]2(c3cc(C#Cc4ccc(OC)cc4)ccc31)[C@H](C(=O)NC[C@H](O)c1ccccc1)[C@H]1C(=O)O[C@H](c3ccccc3)[C@H](c3ccccc3)N1[C@@H]2c1ccc(OCCO)cc1: 0.76
3. COC(=O)C1=CC(CCCO)=CC(C)N(Cc2cccc(OC(F)(F)F)c2)C=C1C(=O)OC (stereo not given): 0.145
4. NCCCCCNC(=O)[C@@H]1C[C@@H]2C(=O)N3CCC[C@H]3C(=O)N2[C@@H]1c1ccc(O)cc1: 0.446

Next compound, please.
Field composite z-score (entry CS(=O)(=O)CCOC(=O)C1=CC(CCCO)=CC(C2CC2)N(Cc2cccc(OC(F)(F)F)c2)C=C1C(=O)OCCS(C)(=O)=O (stereo not given) ) reads 0.0607
